All figures here come from ChEMBL document CHEMBL1155856.

tested on: Rattus norvegicus; test: Toxicity in albino rat assessed as ulcerogenic activity at 200 mg/kg, po after 5 hrs; assay type: organism-based; parameters: dose 200 mg/kg, route oral; details: in vivo
Activity less than 20% is true; Activity greater than or equal to 20% is false.

Completed entries (count: 4):
[
  {
    "smiles input": "CCCCC1C(=O)N(c2ccccc2)N(c2ccccc2)C1=O",
    "target or system": "Rattus norvegicus",
    "class name": "false"
  },
  {
    "smiles input": "COc1cc(OC)nc(Oc2ccc(Br)cc2C(=O)c2ccc(Cl)cc2)n1",
    "target or system": "Rattus norvegicus",
    "class name": "true"
  },
  {
    "smiles input": "CC(=O)Oc1ccccc1C(=O)O",
    "target or system": "Rattus norvegicus",
    "class name": "false"
  },
  {
    "smiles input": "COc1cc(OC)nc(Oc2ccc(C)cc2C(=O)c2ccc(C)cc2)n1",
    "target or system": "Rattus norvegicus",
    "class name": "false"
  }
]

**Query** Determine whether this compound shows Activity lower than 20% (ties excluded): `COc1cc(OC)nc(Oc2ccc(C)cc2C(=O)c2ccc(Cl)cc2)n1`
**Result** false
